measured_on: KAT2B (Homo sapiens)
Sequence (Q92831 whole entry): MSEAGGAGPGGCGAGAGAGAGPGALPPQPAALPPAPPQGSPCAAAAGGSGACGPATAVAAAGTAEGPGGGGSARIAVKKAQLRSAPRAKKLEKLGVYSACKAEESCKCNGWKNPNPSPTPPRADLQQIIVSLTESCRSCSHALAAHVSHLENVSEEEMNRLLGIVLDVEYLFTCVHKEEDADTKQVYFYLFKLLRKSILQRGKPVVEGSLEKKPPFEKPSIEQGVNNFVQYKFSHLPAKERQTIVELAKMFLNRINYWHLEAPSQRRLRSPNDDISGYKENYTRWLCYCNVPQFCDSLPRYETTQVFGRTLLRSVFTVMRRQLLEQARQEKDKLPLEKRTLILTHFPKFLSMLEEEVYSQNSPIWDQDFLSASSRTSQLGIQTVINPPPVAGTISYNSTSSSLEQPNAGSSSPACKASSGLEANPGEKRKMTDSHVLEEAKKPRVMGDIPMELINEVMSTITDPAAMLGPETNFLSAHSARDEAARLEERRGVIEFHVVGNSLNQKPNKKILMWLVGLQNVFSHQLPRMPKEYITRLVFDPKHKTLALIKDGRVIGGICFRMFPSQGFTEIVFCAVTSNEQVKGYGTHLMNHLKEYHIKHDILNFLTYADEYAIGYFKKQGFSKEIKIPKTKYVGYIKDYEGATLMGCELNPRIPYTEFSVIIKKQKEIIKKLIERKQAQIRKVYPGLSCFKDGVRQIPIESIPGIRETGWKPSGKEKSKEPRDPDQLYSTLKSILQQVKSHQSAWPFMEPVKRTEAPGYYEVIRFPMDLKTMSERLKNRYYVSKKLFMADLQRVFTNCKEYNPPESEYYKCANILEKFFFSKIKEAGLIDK
procedure_details: KAT2B degradation, Western Blot (Jess), NCI-H1048 cells
Format: cell-based
Parameters: degrader, Western blot (Jess)
test_conditions: NCI-H1048 cells, KAT2B, 24 h, Western Blot, vs DMSO; read-out: KAT2B NCI-H1048 DC50
From the text: MOLM-13 cells or NCI-H1048 cells were used for Western Blot analysis of KAT2A degradation. KAT2B degradation can be measured in a similar manner with NCI-H1048 cells. […] MOLM-13 cells or NCI-H1048 cells were washed with PBS, then lysed with RIPA buffer containing 1×protease and phosphatase inhibitors (SantaCruz Biotechnologies Cat #sc-24948A). […] Protein was quantified via Bradford assay. […] Signal was detected by chemiluminescence. […]
DC50 overview

For orientation, consider the following solved cases.
compound | measured_on | DC50
CN1C[C@H](Nc2cnn(C)c(=O)c2Cl)C[C@H](c2ccc(C(=O)N3CC(c4ccc5c(c4)C(=O)N(C4CCC(=O)NC4=O)C5=O)C3)cc2)C1 (some centres unmarked) | KAT2B (Homo sapiens) | > 30 nM
Cc1c(N[C@@H]2C[C@H](c3ccc(CN4CCC(Oc5ccc(C6CCC(=O)NC6=O)cc5)CC4)cc3)CN(C)C2)cnn(C)c1=O (some centres unmarked) | KAT2B (Homo sapiens) | > 30 nM
Cc1cc(C2CCC(=O)NC2=O)c(F)cc1N1CCC2(CCN(C(=O)c3ccc([C@H]4C[C@@H](Nc5cnn(C)c(=O)c5Cl)CN(C)C4)cc3)CC2)CC1 (some centres unmarked) | KAT2B (Homo sapiens) | 1 to 30 nM
Cc1cc(N2CCC3(CCN(C(=O)c4ccc([C@H]5C[C@@H](Nc6cnn(C)c(=O)c6C)CN(C)C5)cc4)CC3)CC2)cc(F)c1C1CCC(=O)NC1=O (some centres unmarked) | KAT2B (Homo sapiens) | < 1 nM

# input Find the recorded DC50 belonging to Cc1c(N[C@@H]2C[C@H](c3ccc(C(=O)N4CCC5(CC4)CCN(c4ccc(C6CCC(=O)NC6=O)cc4C(F)(F)F)CC5)cc3)CN(C)C2)cnn(C)c1=O (some centres unmarked) and report it.
# output 1 to 30 nM

# input Find the recorded DC50 belonging to COc1cc(C2CCC3(CC2)CCN(C(=O)c2ccc([C@H]4C[C@@H](Nc5cnn(C)c(=O)c5C)CN(C)C4)cc2)CC3)ccc1C1CCC(=O)NC1=O (some centres unmarked) and report it.
# output 1 to 30 nM

# input Find the recorded DC50 belonging to COc1cc(N2CCC3(CCN(C(=O)c4ccc([C@H]5C[C@@H](Nc6cnn(C)c(=O)c6Cl)CN(C)C5)cc4)CC3)CC2)ccc1C1CCC(=O)NC1=O (some centres unmarked) and report it.
# output 1 to 30 nM

# input Find the recorded DC50 belonging to COc1cc(N2CCC3(CCN(C(=O)c4ccc([C@H]5C[C@@H](Nc6cnn(C)c(=O)c6Cl)CN(C)C5)cc4)CC3)CC2)cc(C)c1C1CCC(=O)NC1=O (some centres unmarked) and report it.
# output 1 to 30 nM

# input Find the recorded DC50 belonging to CN1C[C@H](Nc2cnn(C)c(=O)c2Cl)C[C@H](c2ccc(C(=O)N3CCC4(CC3)CCN(c3ccc(C5CCC(=O)NC5=O)cc3)CC4)cc2)C1 (some centres unmarked) and report it.
# output < 1 nM

# input Find the recorded DC50 belonging to CN1C[C@H](Nc2cnn(C)c(=O)c2Br)C[C@H](c2ccc(CN3CCN(c4ccc5c(c4)CN(C4CCC(=O)NC4=O)C5=O)CC3)cc2)C1 (some centres unmarked) and report it.
# output < 1 nM

# input Find the recorded DC50 belonging to Cc1c(N[C@@H]2C[C@H](c3ccc(C(=O)N4CCC(c5ccc6c(C7CCC(=O)NC7=O)cncc6c5)CC4)cc3)CN(C)C2)cnn(C)c1=O (some centres unmarked) and report it.
# output > 30 nM
